src = patent US20240173419A1

Assign DC50 to each entry below.
# System name: CDK2 (Homo sapiens, UniProt P24941)
# Construct: endogenous in cells; host or cells: MKN1 cells
# Experimental details: CDK2 degradation in MKN1 cells (AlphaLISA)
# Type: cell-based
# Condition notes: 14 h incubation, read-out: CDK2 degradation 14 h: Mean external-Abs DC50

Prompt: # return recorded DC50 for input Cc1cc(S(=O)(=O)C2CC3(CCN(CC4CCN(c5ccc6c(c5F)n(C)c(=O)n6C5CCC(=O)NC5=O)CC4)CC3)C2)ccc1Nc1nc(N2CCCC(C)(O)C2)c2c(ccn2C)n1 (stereo not drawn)
Completion: > 1 µM

Prompt: Tell me DC50 reported for Cc1cc(S(=O)(=O)NCCOC2CC3(C2)CN(CC#Cc2ccc4c(c2)n(C)c(=O)n4C2CCC(=O)NC2=O)C3)ccc1Nc1ncc2ccc(=O)n(C3CCCC3)c2n1 (stereo not drawn)
Completion: < 0.1 µM

Prompt: Look up DC50 of Cc1cc(S(=O)(=O)NCCCCCCc2cccc3c2n(C)c(=O)n3C2CCC(=O)NC2=O)ccc1Nc1ncc2cc(C(F)F)c(=O)n(C3CCCC3(C)O)c2n1 (stereo not drawn) and report it.
Completion: < 0.1 µM

====

# System name: CDK2 (Homo sapiens)
# Construct: endogenous in cells; host or cells: MKN1 cells
# Experimental details: CDK2 degradation in MKN1 cells (AlphaLISA)
# Assay type: cell-based
# Condition notes: 14 h incubation
Observation type: CDK2 degradation 14 h: Average Dmax %

Study these solved cases before continuing.
Compound: Cc1cc(S(=O)(=O)N2CCC(CCN3CCN(c4cccc5c4n(C)c(=O)n5C4CCC(=O)NC4=O)CC3)CC2)ccc1Nc1ncc2cc(Cl)c(=O)n(C3CCCC3)c2n1 (stereo not drawn)
Result: A (A (>75% o))
//
Compound: CC1(O)CCCN(c2nc(Nc3ccc(S(=O)(=O)NC4CCC(CN5CCN(c6ccc(C7CCC(=O)NC7=O)cc6)CC5)CC4)cc3C(F)(F)F)ncc2C(F)(F)F)C1 (stereo not drawn)
Result: B (B (>50% -75%))
//
Compound: Cc1cc(S(=O)(=O)C2CCC(CN(C)C3CCN(c4cccc5c4n(C)c(=O)n5C4CCC(=O)NC4=O)CC3)CC2)ccc1Nc1ncc(C(F)(F)F)c(-c2cnn(C)c2)n1 (stereo not drawn)
Result: A (A (>75% o))
//
Compound: CC1(O)CCN(c2nc(Nc3ccc(S(=O)(=O)NC4CCN(CC5CCN(c6ccc(C7CCC(=O)NC7=O)c(F)c6)CC5)CC4F)cc3F)ncc2C(F)(F)F)CC1 (stereo not drawn)
Result: A (A (>75% o))
//
Compound: Cc1cc(S(=O)(=O)N2CCC(N(C)CC3(F)CCN(c4cccc5c4n(C)c(=O)n5C4CCC(=O)NC4=O)CC3)CC2)ccc1Nc1ncc2cc(Cl)c(=O)n(C3CCCC34CC4)c2n1 (stereo not drawn)
Result: B (B (>50% -75%))

Now look at this entry.
Prompt: State its CDK2 degradation 14 h: Average Dmax %: Cc1cc(S(=O)(=O)C2CC3(CCN(CC4CCN(c5ccc(NC6CCC(=O)NC6=O)c(F)c5)CC4)CC3)C2)ccc1Nc1ncc2cc(Cl)c(=O)n(C3CCCC3)c2n1 (stereo not drawn)
Completion: B (B (>50% -75%))

====

# System name: CDK2 (Homo sapiens)
# Construct: endogenous in cells; host or cells: MKN1 cells
# Experimental details: CDK2 degradation in MKN1 cells (AlphaLISA)
# Type: cell-based
# Condition notes: 14 h incubation
Observation type: CDK2 degradation 14 h: Average Dmax %

Solved entries (count: 10):
Molecule: Cc1cc(S(=O)(=O)NC(C)COC2CCC(CN3CCN(c4ccc5c(c4F)n(C)c(=O)n5C4CCC(=O)NC4=O)CC3)CC2)ccc1Nc1ncc2cc(Cl)c(=O)n(C(C)C(C)(C)O)c2n1 (stereo not drawn) [I-843]
Observation type: CDK2 degradation 14 h: Average Dmax %
Result: D (D (<25%))

Molecule: COc1cc(N2CCN(CC3CCC(NS(=O)(=O)c4ccc(Nc5ncc(C(F)(F)F)c(N6CCCC(C)(O)C6)n5)c(C)c4)CC3)CC2)c(F)cc1NC1CCC(=O)NC1=O (stereo not drawn) [I-816]
Observation type: CDK2 degradation 14 h: Average Dmax %
Result: A (A (>75% o))

Molecule: Cc1cc(S(=O)(=O)NCCOC2CC3(C2)CN(CC#Cc2ccc4c(c2)n(C)c(=O)n4C2CCC(=O)NC2=O)C3)ccc1Nc1ncc2ccc(=O)n(C3CCCC3)c2n1 (stereo not drawn) [I-473]
Observation type: CDK2 degradation 14 h: Average Dmax %
Result: A (A (>75% o))

Molecule: Cc1cc(S(=O)(=O)C2CC3(CCN(CC4CCN(c5ccc6c(N7CCC(=O)NC7=O)nn(C)c6c5F)CC4)CC3)C2)ccc1Nc1ncc2cc(Cl)c(=O)n(C3CCCC3)c2n1 [I-325]
Observation type: CDK2 degradation 14 h: Average Dmax %
Result: A (A (>75% o))

Molecule: Cc1cc(S(=O)(=O)NCCCC2CCN(c3ccc(N4CCC(=O)NC4=O)cc3)CC2)ccc1Nc1ncc2cc(Cl)c(=O)n(C3CCCC3)c2n1 [I-412]
Observation type: CDK2 degradation 14 h: Average Dmax %
Result: C (C (>25% -50%))

Molecule: Cc1cc(S(=O)(=O)C2CC3(CCN(CC4CCN(c5cccc(OC6CCC(=O)NC6=O)c5)CC4)CC3)C2)ccc1Nc1ncc2cc(Cl)c(=O)n(C3CCCC3)c2n1 (stereo not drawn) [I-74]
Observation type: CDK2 degradation 14 h: Average Dmax %
Result: A (A (>75% o))

Molecule: Cc1cc(S(=O)(=O)N2CCC(N(C)CC3CCN(c4cccc5c4n(C)c(=O)n5C4CCC(=O)NC4=O)CC3)C(F)(F)C2)ccc1Nc1ncc2cc(Cl)c(=O)n(C3CCCC34CC4)c2n1 (stereo not drawn) [I-355]
Observation type: CDK2 degradation 14 h: Average Dmax %
Result: D (D (<25%))

Molecule: Cc1cc(S(=O)(=O)N2CCC(Cn3cnc4c3CCN(c3ccc5c(c3F)n(C)c(=O)n5C3CCC(=O)NC3=O)C4)CC2)ccc1Nc1ncc2ccc(=O)n(C3CCCC3)c2n1 (stereo not drawn) [I-280]
Observation type: CDK2 degradation 14 h: Average Dmax %
Result: C (C (>25% -50%))

Molecule: Cc1cc(S(=O)(=O)NC(C)COC2CCC(CN3CCN(c4ccc5c(c4F)n(C)c(=O)n5C4CCC(=O)NC4=O)CC3)CC2)ccc1Nc1ncc(C(F)(F)F)c(N2CCCC(C)(O)C2)n1 (stereo not drawn) [I-846]
Observation type: CDK2 degradation 14 h: Average Dmax %
Result: A (A (>75% o))

Molecule: Cc1cc(S(=O)(=O)NC2CC(N3CCN(CC4CCN(c5cccc6c5n(C)c(=O)n6C5CCC(=O)NC5=O)CC4)CC3)C2)ccc1Nc1ncc(C(F)(F)F)c(N2CCCC(C)(O)C2)n1 (stereo not drawn) [I-663]
Observation type: CDK2 degradation 14 h: Average Dmax %
Result: A (A (>75% o))

Okay, now this molecule:
Prompt: For the molecule CC1(O)CCCN(c2nc(Nc3ccc(S(=O)(=O)NC4CCC(CN5CCN(c6ccc(C7CCC(=O)NC7=O)c(F)c6)CC5)CC4)cc3)ncc2C(F)(F)F)C1 (stereo not drawn) [I-943] , give its measured CDK2 degradation 14 h: Average Dmax % value.
Completion: A (A (>75% o))
